What IC50 was measured for each of the following?
ASSAY_TARGET: AKT1 E17K (Homo sapiens, UniProt P31749, E17K)
Construct: expressed in transfected cells; host or cells: HEK293
Sequence (P31749 whole entry E17K): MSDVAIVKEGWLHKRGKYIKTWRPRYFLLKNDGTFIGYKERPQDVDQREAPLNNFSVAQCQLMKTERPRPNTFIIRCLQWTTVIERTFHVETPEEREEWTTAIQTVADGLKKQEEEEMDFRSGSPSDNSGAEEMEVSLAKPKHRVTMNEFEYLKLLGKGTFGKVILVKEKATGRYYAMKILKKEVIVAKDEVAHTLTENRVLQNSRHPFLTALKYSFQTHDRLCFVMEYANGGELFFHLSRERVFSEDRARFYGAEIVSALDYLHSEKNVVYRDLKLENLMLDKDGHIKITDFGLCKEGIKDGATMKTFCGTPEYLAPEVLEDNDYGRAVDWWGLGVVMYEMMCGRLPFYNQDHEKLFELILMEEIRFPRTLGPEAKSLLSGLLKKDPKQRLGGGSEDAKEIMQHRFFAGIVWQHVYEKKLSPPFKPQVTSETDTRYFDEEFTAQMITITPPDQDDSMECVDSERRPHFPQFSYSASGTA
ASSAY_NAME: Live cell AKT1 E17K target engagement by NanoBRET competitive probe displacement in HEK293 cells
Type: binding
MEASUREMENT_CONTEXT: NanoBRET live cell target engagement, HEK293 cells, 2 h at 37° C.
Give just the numeric value; nM need not be written.

Request: IC50, test system AKT1 E17K (Homo sapiens, UniProt P31749, E17K), entry COc1cc(C(=O)N[C@H]2CCc3cc(-n4c(-c5cccnc5N)nc5ccc(-n6cccn6)nc54)ccc32)cc(F)c1F 120

Check Nc1ncccc1-c1nc2ccc(-n3cccn3)nc2n1-c1ccc2c(c1)CC[C@@H]2n1cc(C2CC2)nn1 too. 5.8

Next molecule: COc1cncc(C(=O)N[C@H]2CCc3cc(-n4c(-c5cccnc5N)nc5ccc(-n6cccn6)nc54)ccc32)c1 20.9

Another: Nc1ncccc1-c1nc2ccc(-n3cccn3)nc2n1-c1ccc2c(c1)CC[C@@H]2NC(=O)c1cnccn1 167

Try this molecule too: Nc1ncccc1-c1nc2ccc(-n3nccn3)nc2n1-c1ccc2c(c1)CC[C@@H]2NC(=O)c1ccnc2c1CCO2 897

Again, but for COc1ccc(C(=O)N[C@H]2CCc3cc(-n4c(-c5cccnc5N)nc5ccc(-n6cccn6)nc54)ccc32)cn1 25.6

Also, Cc1cc(C(=O)N[C@H]2CCc3cc(-n4c(-c5cccnc5N)nc5ccc(-n6cccn6)nc54)ccc32)n[nH]1 please. 172

----------
ASSAY_TARGET: AKT2 (Homo sapiens)
Construct: expressed in transfected cells; host or cells: HEK293
ASSAY_NAME: Live cell AKT2 target engagement by NanoBRET competitive probe displacement in HEK293 cells
Assay type: binding
MEASUREMENT_CONTEXT: NanoBRET live cell target engagement, HEK293 cells, 2 h at 37° C.; read-out: AKT2 IC50
PARAMETER: log10 IC50 (log10 of the value in µM)
Note the log scale: values are log10 of IC50 expressed in µM.

State the recorded log10 IC50 for this entry: N#Cc1ccc(C(=O)N[C@H]2CCc3cc(-n4c(-c5cccnc5N)nc5ccc(-n6cccn6)nc54)ccc32)cc1 -1.24

Entry Nc1ncccc1-c1nc2ccc(-n3nccn3)nc2n1-c1ccc2c(c1)CC[C@@H]2NC(=O)c1cncnc1 please 0.54

What do you have for Cc1cnc2ccc(C(=O)N[C@H]3CCc4cc(-n5c(-c6cccnc6N)nc6ccc(-n7cccn7)nc65)ccc43)cn12 ? -1.16

// same read-out, input: Nc1ncccc1-c1nc2ccc(-n3cccn3)nc2n1-c1ccc2c(c1)CC[C@@H]2NC(=O)c1cc2ccccn2n1 -1.10

How about this molecule: COc1nccc(C(=O)N[C@H]2CCc3cc(-n4c(-c5cccnc5N)nc5ccc(-n6nccn6)nc54)ccc32)c1C -0.51

Entry to check: Nc1ncccc1-c1nc2c(F)cc(-n3cccn3)nc2n1-c1ccc2c(c1)CC[C@@H]2NC(=O)c1ccc(C(F)F)nc1 -1.00

Would you mind doing Nc1ncccc1-c1nc2ccc(-n3cccn3)nc2n1-c1ccc2c(c1)CC[C@@H]2NC(=O)c1ccn2ccnc2c1 as well? -1.52

----------
ASSAY_TARGET: AKT2 (Homo sapiens, UniProt P31751)
Construct: expressed in transfected cells; host or cells: HEK293
Sequence (P31751 whole entry): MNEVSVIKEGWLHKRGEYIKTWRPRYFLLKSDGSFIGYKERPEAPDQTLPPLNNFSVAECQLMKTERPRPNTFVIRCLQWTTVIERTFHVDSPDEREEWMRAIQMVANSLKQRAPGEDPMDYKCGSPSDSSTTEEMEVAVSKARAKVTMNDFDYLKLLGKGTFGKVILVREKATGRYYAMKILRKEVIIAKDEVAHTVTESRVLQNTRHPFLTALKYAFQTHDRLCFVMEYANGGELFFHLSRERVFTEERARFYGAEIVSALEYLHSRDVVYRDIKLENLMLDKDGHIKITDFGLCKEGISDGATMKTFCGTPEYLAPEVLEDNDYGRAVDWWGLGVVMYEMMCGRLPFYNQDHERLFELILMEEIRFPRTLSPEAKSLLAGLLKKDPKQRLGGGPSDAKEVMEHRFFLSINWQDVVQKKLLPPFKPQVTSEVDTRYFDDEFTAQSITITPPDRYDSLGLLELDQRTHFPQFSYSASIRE
ASSAY_NAME: Live cell AKT2 target engagement by NanoBRET competitive probe displacement in HEK293 cells
Assay type: binding
MEASUREMENT_CONTEXT: NanoBRET competitive probe displacement, live HEK293 cells, 2 h at 37° C.; read-out: AKT2 IC50
Provide the recorded pIC50 for the entries that follow.
Give only the number. pIC50 is defined as minus log10 of concentration in molar units.

Returns the measured pIC50 for the input molecule. Input: Nc1ncccc1-c1nc2ccc(-n3ccc(Oc4cccnc4)n3)nc2n1-c1ccc2c(c1)CC[C@@H]2NC1CCN(C(=O)C2CC2)CC1 [Compound 568] 6.34

Note, next up: Nc1ncccc1-c1nc2ccc(-n3ccc(C4COC4)n3)nc2n1-c1ccc2c(c1)CC[C@@H]2NC1CCN(C(=O)C2CC2)CC1 [Compound 597] 5.42

What about Cc1nnc(-c2ccc3nc(-c4cccnc4N)n(-c4ccc5c(c4)CC[C@@H]5NC4CCN(C(=O)C5CC5)CC4)c3n2)s1 [Compound 516] ? 5.20

Same for COC1CN(c2ccn(-c3ccc4nc(-c5cccnc5N)n(-c5ccc6c(c5)CC(F)[C@@H]6NC5CCN(C(=O)C6CC6)CC5)c4n3)n2)C1 (stereo partly drawn) [Compound 553] 6.46

Also, CN1CCC(n2ccc(-c3ccc4nc(-c5cccnc5N)n(-c5ccc6c(c5)CC[C@@H]6NC5CCN(C(=O)C6CC6)CC5)c4n3)n2)CC1 [Compound 570] please. 6.17

Then what about the molecule Nc1ncccc1-c1nc2ccc(C#C[C@H]3CCO3)nc2n1-c1ccc2c(c1)CC[C@@H]2NC(=O)c1ccc(C(F)F)nc1 [Compound 453] ? 5.42

----------
ASSAY_TARGET: AKT2 (Homo sapiens, UniProt P31751)
Construct: expressed in transfected cells; host or cells: HEK293
ASSAY_NAME: Live cell AKT2 target engagement by NanoBRET competitive probe displacement in HEK293 cells
Format: binding
MEASUREMENT_CONTEXT: NanoBRET live cell target engagement, HEK293 cells, 2 h at 37° C.; read-out: AKT2 IC50
PARAMETER: log10(IC50) (log10 of the value in nM)
Transform log10 | Measure IC50 | Unit nM

Please give the measured log10(IC50) for this compound: Nc1ncccc1-c1nc2ccc(-n3cccn3)nc2n1-c1ccc2c(c1)CC[C@@H]2N1CCCCC1 2.99

Repeat with Cc1ncccc1OCC1CCc2cc(-n3c(-c4cccnc4N)nc4ccc(-n5cccn5)nc43)ccc21 (single isomer, unassigned) [Compound 253] 3.33

Next entry: Cc1ccc(C(=O)N[C@H]2CCc3cc(-n4c(-c5cccnc5N)nc5ccc(-c6nc(C)co6)nc54)ccc32)cn1 2.46

Can you check Nc1ncccc1-c1nc2ccc(-n3cccn3)nc2n1-c1ccc2c(c1)CC[C@@H]2NC(=O)c1ccccn1 next? 3.10

Moving on to the next compound: COc1cncc(C(=O)N[C@H]2CCc3cc(-n4c(-c5cccnc5N)nc5ccc(-n6cccn6)nc54)ccc32)n1 3.41

Next compound: Cc1ncccc1C(=O)N[C@@H]1c2ccc(-n3c(-c4cccnc4N)nc4ccc(-n5cccn5)nc43)cc2CC1F (stereo partly shown) [Compound 148] 2.03

What do we get for Nc1ncccc1-c1nc2ccc(-n3cccn3)nc2n1-c1ccc2c(c1)CC[C@@H]2NC(=O)c1cc2n(n1)CCC2 ? 2.35

----------
ASSAY_TARGET: AKT2 (Homo sapiens)
Construct: expressed in transfected cells; host or cells: HEK293
ASSAY_NAME: Live cell AKT2 target engagement by NanoBRET competitive probe displacement in HEK293 cells
Type: binding
MEASUREMENT_CONTEXT: NanoBRET live cell target engagement, HEK293 cells, 2 h at 37° C.; read-out: AKT2 IC50
Give measured pIC50 for each item. Keep answers brief.
FYI, pIC50 means -log10 of a concentration in mol per litre.

Requested field: pIC50. Item: Nc1ncccc1-c1nc2ccc(-n3cccn3)nc2n1-c1ccc2c(c1)CC[C@@H]2NC(=O)c1cccnc1 7.19

// query: Nc1ncccc1-c1nc2ccc(-n3cccn3)nc2n1-c1ccc2c(c1)CC[C@@H]2NC(=O)c1ccc2[nH]ncc2c1 7.37

Further, for Cc1ccc(C(=O)N[C@H]2CCc3cc(-n4c(-c5cccnc5N)nc5ccc(C#Cc6ncco6)nc54)ccc32)cn1 ? 5.55

Repeat with Nc1ncccc1-c1nc2ccc(-n3ccc(F)n3)nc2n1-c1ccc2c(c1)CC[C@@H]2NC1CCN(c2ccccn2)CC1 5.60

Item: Nc1ncccc1-c1nc2ccc(-n3cccn3)nc2n1-c1ccc2c(c1)CC[C@@H]2NC(=O)c1cccnc1Cl 6.65

Field entry: Nc1ncccc1-c1nc2ccc(-n3ccc(F)n3)nc2n1-c1ccc2c(c1)CC[C@@H]2NC(=O)c1ccc(C(F)F)nc1 6.93

Repeat for the following compound: Nc1ncccc1-c1nc2ccc(-n3cccn3)nc2n1-c1ccc2c(c1)CC[C@@H]2NC1COC1 5.35

----------
ASSAY_TARGET: AKT1 WT (Homo sapiens)
Construct: expressed in transfected cells; host or cells: HEK293
Sequence (P31749 whole entry): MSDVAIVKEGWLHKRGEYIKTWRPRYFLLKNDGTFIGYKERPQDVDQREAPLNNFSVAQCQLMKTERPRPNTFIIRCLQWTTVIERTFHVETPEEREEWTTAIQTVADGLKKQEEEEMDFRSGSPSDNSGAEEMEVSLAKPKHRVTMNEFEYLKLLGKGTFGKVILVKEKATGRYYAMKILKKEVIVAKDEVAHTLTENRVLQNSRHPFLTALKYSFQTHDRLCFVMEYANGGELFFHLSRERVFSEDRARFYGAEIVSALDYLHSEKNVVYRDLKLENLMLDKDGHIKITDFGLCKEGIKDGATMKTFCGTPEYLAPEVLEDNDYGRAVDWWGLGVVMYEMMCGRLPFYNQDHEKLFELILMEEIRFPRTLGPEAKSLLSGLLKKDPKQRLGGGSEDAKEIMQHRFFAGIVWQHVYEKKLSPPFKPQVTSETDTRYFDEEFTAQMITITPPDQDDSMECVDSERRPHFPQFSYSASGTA
ASSAY_NAME: Live cell AKT1 WT target engagement by NanoBRET competitive probe displacement in HEK293 cells
Type: binding
MEASUREMENT_CONTEXT: NanoBRET competitive probe displacement, live HEK293 cells, 2 h at 37° C.; read-out: AKT1 WT IC50
Could you please report measured IC50 for the items listed next?
Number in nM, nothing else.

Would you kindly share the measured IC50 for Nc1ncccc1-c1nc2ccc(-n3cccn3)nc2n1-c1ccc2c(c1)CC[C@@H]2N(C1CC1)C1CCN(C(=O)C2CC2)CC1 [Compound 557] ? 15.9

// same read-out, input: COc1cc(C(=O)N[C@H]2CCc3cc(-n4c(-c5ccccc5F)nc5ccc(-n6cccn6)nc54)ccc32)ccn1 [Compound 402] 7.99

# repeat for Cc1ccc(C(=O)N[C@H]2CCc3cc(-n4c(-c5cccnc5N)nc5cc(F)c(-n6nccn6)nc54)ccc32)cn1 [Compound 466] 25.9

Next: CN1CC(Oc2ccn(-c3ccc4nc(-c5cccnc5N)n(-c5ccc6c(c5)CC[C@@H]6NC5CCN(C(=O)C6CC6)CC5)c4n3)n2)C1 [Compound 566] 10.5

Field entry: CN(CCC1CC1)[C@H]1CCc2cc(-n3c(-c4cccnc4N)nc4ccc(-n5cccn5)nc43)ccc21 [Compound 458] 93.4

// repeat for Nc1ncccc1-c1nc2ccc(-n3ccc(N4CCOCC4)n3)nc2n1-c1ccc2c(c1)CC(F)[C@@H]2NC1CCN(C(=O)C2CC2)CC1 (stereo partly drawn) [Compound 544] and report 6.24
